The reported measurements were obtained from PubChem BioAssay AID504333.

biological target: Bromodomain adjacent to zinc finger domain protein 2B (Homo sapiens) (UniProt Q9UIF8); assay: qHTS Assay for Inhibitors of BAZ2B; settings: AlphaScreen BAZ2B-H3K14Ac peptide displacement; series mostly up to 114 µM; also: nearly all actives have a fitted effect of over 60% in size
Sequence (Q9UIF8 whole entry, looked up, the tested form may be a part): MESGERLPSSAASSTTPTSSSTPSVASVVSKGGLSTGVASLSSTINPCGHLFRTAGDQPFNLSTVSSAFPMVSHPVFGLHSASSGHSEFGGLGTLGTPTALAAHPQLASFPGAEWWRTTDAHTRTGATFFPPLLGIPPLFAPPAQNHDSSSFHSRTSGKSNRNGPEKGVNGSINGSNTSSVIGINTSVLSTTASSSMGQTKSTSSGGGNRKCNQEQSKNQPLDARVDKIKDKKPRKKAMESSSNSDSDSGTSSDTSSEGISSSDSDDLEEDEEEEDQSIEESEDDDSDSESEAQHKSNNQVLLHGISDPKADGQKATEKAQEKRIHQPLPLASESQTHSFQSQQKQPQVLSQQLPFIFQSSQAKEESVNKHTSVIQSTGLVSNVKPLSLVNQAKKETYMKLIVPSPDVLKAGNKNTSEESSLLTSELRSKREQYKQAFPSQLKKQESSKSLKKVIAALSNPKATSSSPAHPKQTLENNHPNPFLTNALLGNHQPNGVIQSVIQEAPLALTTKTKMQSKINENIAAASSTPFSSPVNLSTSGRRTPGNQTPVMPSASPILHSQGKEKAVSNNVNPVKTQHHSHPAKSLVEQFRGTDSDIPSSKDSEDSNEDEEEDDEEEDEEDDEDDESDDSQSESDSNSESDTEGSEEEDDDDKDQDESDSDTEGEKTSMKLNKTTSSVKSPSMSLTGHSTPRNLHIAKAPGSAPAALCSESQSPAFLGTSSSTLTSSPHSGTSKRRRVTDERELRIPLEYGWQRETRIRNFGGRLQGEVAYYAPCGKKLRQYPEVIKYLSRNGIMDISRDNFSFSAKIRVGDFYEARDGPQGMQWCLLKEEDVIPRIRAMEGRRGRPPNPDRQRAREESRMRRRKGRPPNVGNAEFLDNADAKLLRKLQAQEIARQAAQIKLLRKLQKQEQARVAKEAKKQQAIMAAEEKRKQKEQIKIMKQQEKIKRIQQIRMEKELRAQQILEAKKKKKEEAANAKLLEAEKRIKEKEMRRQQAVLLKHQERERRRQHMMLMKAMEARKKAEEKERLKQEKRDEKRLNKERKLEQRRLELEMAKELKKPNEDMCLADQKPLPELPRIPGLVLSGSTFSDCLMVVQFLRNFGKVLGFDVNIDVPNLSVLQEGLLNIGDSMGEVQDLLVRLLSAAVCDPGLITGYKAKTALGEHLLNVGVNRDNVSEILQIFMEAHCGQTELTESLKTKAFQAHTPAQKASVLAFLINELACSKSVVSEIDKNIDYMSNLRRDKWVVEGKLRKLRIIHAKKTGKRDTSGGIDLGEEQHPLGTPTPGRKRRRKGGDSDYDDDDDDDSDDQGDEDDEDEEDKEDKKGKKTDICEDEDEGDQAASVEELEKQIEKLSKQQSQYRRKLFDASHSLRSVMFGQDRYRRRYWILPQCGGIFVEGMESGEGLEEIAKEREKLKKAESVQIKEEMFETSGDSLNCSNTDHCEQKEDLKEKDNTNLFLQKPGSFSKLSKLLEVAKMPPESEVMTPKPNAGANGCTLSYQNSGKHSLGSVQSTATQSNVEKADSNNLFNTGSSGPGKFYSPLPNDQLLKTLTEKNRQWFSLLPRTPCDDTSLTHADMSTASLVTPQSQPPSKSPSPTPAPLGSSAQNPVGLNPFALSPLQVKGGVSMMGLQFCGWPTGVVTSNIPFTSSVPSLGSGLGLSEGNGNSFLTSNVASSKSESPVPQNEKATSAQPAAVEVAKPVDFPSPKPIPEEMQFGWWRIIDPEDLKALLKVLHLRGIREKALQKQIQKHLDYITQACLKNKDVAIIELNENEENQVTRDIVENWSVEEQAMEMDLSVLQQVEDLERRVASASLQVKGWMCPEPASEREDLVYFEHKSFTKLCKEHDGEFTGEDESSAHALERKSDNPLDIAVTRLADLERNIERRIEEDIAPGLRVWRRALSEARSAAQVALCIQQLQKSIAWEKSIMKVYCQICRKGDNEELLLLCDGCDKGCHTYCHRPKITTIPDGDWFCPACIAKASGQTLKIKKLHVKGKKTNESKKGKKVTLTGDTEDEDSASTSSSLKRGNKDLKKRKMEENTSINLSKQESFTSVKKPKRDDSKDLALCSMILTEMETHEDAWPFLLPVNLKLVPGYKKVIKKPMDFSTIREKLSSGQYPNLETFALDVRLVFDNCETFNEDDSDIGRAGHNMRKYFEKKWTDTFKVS
Out of some 360,000 compounds screened, about 16,000 (4.4%) were called active. About 9% were inconclusive and are not listed. This is one part of a sample in which actives are shown more often than they occur.

Compound	Experimental System	outcome
CC(C)CC(=O)NCC(c1ccc2c(c1)OCO2)N1CCN(c2ccc(F)cc2)CC1 (stereo unspecified)	Bromodomain adjacent to zinc finger domain protein 2B (Homo sapiens) (UniProt Q9UIF8)	inactive
COc1ccc(NC(=O)CSc2nc3ccccc3n2CC(=O)N2CCCCC2C)cc1 (stereo unspecified)	Bromodomain adjacent to zinc finger domain protein 2B (Homo sapiens) (UniProt Q9UIF8)	inactive
COCCN(Cc1ccco1)C(=O)Cn1ncc2c([nH]c3ccccc32)c1=O	Bromodomain adjacent to zinc finger domain protein 2B (Homo sapiens) (UniProt Q9UIF8)	inactive
C=CCN(C(=O)c1cc(C)cc(C)c1)C1(C(=O)Nc2ccccc2)CCN(C(C)C)CC1	Bromodomain adjacent to zinc finger domain protein 2B (Homo sapiens) (UniProt Q9UIF8)	inactive
CCc1nnc2c3ccccc3nc(N3CCN(c4ccc(C)cc4C)CC3)n12	Bromodomain adjacent to zinc finger domain protein 2B (Homo sapiens) (UniProt Q9UIF8)	inactive
COc1ccc(Cl)cc1S(=O)(=O)N1CCN(CC(=O)C(C)(C)C)CC1	Bromodomain adjacent to zinc finger domain protein 2B (Homo sapiens) (UniProt Q9UIF8)	inactive
